Assay text: NCI Yeast Anticancer Drug Screen. Data for the mlh1 rad18 strain (AID 175)
Stated conditions: S. cerevisiae mlh1 rad18 strain growth inhibition; at 50.0 µM; stronger effect = higher value
About 79,000 compounds went through this panel and 15% of them were active in at least one assay; those are over-represented in the sample as a whole.
Metric name: growth inhibition (%)

O=C1CCC(=O)N1Cc1ccc(Cl)cc1 | -4.1
Cc1ccccc1NCC#N | -11.6
O=[N+]([O-])c1cccc2cnccc12 | 17.6
O=CNc1ccccc1Cc1ccccc1 | 1.65
O=[N+]([O-])c1ccc(CCCCCc2ccccc2)cc1 | -21.4
NC(N)=NCc1ccc2c(c1)OCO2 | -34.1
Cc1ccc(Cl)cc1N=C=S | -11.2
O=C(c1ccccc1)N(C(=O)c1ccccc1)c1cccc[n+]1[O-] | -4

---

Assay text: NCI Yeast Anticancer Drug Screen. Data for the cln2 rad14 strain (AID 165);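 further: 0% = growth equal to vehicle treated cultures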
Stated conditions: S. cerevisiae cln2 rad14 strain, at 50.0 µM, stronger effect = higher value
The panel holds about 79,000 compounds, 15% with a hit somewhere; the sample as a whole holds those more often.
Metric name: growth inhibition (%)

CC(=O)Nc1cc2cc(NS(=O)(=O)c3ccc(Cl)c(Cl)c3)ccc2oc1=O | 19.9
CC(C)(C)c1ccc(OCCOCCOc2ccc(C(C)(C)C)cc2S(N)(=O)=O)c(S(N)(=O)=O)c1 | 9.7
NC(C(=O)O)c1ccccc1C(=O)O (stereo not given) | 0.8
CS(=O)(=O)Nc1ccccc1-c1nc2ccccc2c(=O)o1 | 14.3
CC(=O)OC(C(=O)N(c1ccccc1)c1ccccc1)c1ccccc1 (stereo not given) | 18.2
C/C(=N/O)c1c[n+]([O-])ccn1 | -31.2
Cc1ccc(S(=O)(=O)OCCNc2ccc([N+](=O)[O-])cc2[N+](=O)[O-])cc1 | 11.8
O=C(Cn1c2c(c3ccccc31)CCCC2)N1CCCCC1 | -22.2
O=C1CSC(=S)N1c1cccc(F)c1 | -27.2
Clc1cc2nn(C3CCCCO3)nc2cc1Cl (stereo not given) | -15.9
Cc1ccc(C(=O)CSC2=NCCN2)cc1Cl | -2.2
CCOC(=O)NC(=O)c1cn(C2OC(CO)C(O)C2O)c(=O)[nH]c1=O (stereo not given) | -5.9
O=C(O)c1cccc(F)n1 | 3.1
COc1cc(C(=O)OC2CC3CN(CCc4c[nH]c5ccccc45)CC3CC2OC)cc(OC)c1OC (stereo not given) | 32.9
Cc1c(C)c2ccc(OCC(O)COC(C)C)c(C)c2oc1=O (stereo not given) | -5.95
CN=C(c1ccccc1)N(O)c1ccccc1 | -10.1
Cc1c2c(C#N)nccc2c(C)c2c1c1ccccc1n2Cc1ccccc1 | 20.9
O=C1C=C(O)C(=C/C=C/C=C/c2c(O)cc(O)cc2O)C(O)=C1 | 10.2
CCC(Nc1ccccc1)C(=O)O (stereo not given) | -16.9
Nc1cc2c(cc1I)-c1ccccc1C2O (stereo not given) | -2.9
CCC(=N\NC(N)=S)/C(C)=N/O | 15.2
CC/C(C)=N\NC(N)=O | -16.1
NC(=O)N/N=C/c1c(Cl)cccc1Cl | -10.7
Clc1ccc(CCc2ccncn2)c(Cl)c1 | 17.7
CCCCCSc1ncnc2c1ncn2CO | 9.75
O=c1ccccc2cccc(O)c12 | -17.4
COC(=O)c1c(C)c(C)cc(C)c1C | 11.7
Cc1nc2cnc(N)nc2nc1C | -40.4
CC(=O)c1ccccc1NCC(=O)Nn1cnc2ccc(S(=O)(=O)Nc3ccccc3C(C)=O)cc2c1=O | 18.6
COC(=O)C1C(C(=O)OC)C2(C)C(=O)C1(C)C(c1ccccc1)=C2c1ccccc1 (stereo not given) | -12.3

---

Assay text: NCI Yeast Anticancer Drug Screen. Data for the mec2-1 strain (AID 157)
Stated conditions: S. cerevisiae mec2-1 strain, at 50.0 µM
Method: Growth inhibition of yeast strains with defined genetic alterations is measured as a screen for potential anti-cancer activity. Selected strains with alterations in DNA damage repair or cell cycle control were exposed to compounds and growth inhibition was measured relative to vehicle treated controls. The strain used in this assay is mec2-1
The panel holds about 79,000 compounds, 15% with a hit somewhere; the sample as a whole holds those more often. Activity calls are given as the source filed them. Cut-off read from the data, not from the text of the source: active = growth inhibition above about 70%; inactive = the rest.
Outcome codes: 1 for active, 0 for inactive

c1ccc2cc(CNCCCCNCCCNCc3ccc4ccccc4c3)ccc2c1 | 0
CC1CC(=O)c2c(O)ccc(O)c21 (stereo not drawn) | 0
CCN(CC)CCNc1c2ccc(Cl)cc2nc2c1c(C)nn2C | 0
Cc1cc(C)n(-c2ccc([N+](=O)[O-])cn2)n1 | 0
Oc1ccc(Cl)cc1CC(=S)N1CCOCC1 | 0
N#CCCN(CCC#N)c1ccc(/C=C2/C=C(c3ccccc3)OC2=O)cc1 | 0
CC(C)(C#N)OC(=O)Nc1cccc(Cl)c1 | 0
ON(C=Nc1ccccc1)c1ccccc1 | 0
C=C1C(=O)OC2/C=C(\C)C(OC(C)=O)C3OC3C(C)(O)CC(OC(=O)/C(C)=C/C)C12 (stereo not drawn) | 0
Cc1cc2c3c(nc2c2cc[nH]c(C)c12)CCCC3 | 1
CC(C)NC(=O)Oc1ccccc1C(=O)OCc1ccccc1 | 0
O=C(O)C1CCCN1/N=C/c1cccc([N+](=O)[O-])c1 (stereo not drawn) | 0
Cc1nc(C)c(C(=O)NN)cc1C(=O)NN | 0
CC(O)COC(C)c1ccccc1 (stereo not drawn) | 0
CC(=O)NNc1nc(C)c(C(/C=C/c2ccc([N+](=O)[O-])cc2)=N/NC(N)=O)s1 | 0
O=C(Cc1nc2ccc(Cl)cc2[nH]c1=O)c1ccncc1 | 0
COS(=O)c1cc(Cl)cc(Cl)c1O (stereo not drawn) | 0
CCOCNC(=O)Nc1ccccc1 | 0

---

Some compounds, each annotated with its measured growth inhibition.
Assay text: NCI Yeast Anticancer Drug Screen. Data for the bub3 strain (AID 167)
Stated conditions: S. cerevisiae bub3 mutant strain, at 50.0 µM, stronger effect = higher value
About 79,000 compounds went through this panel and 15% of them were active in at least one assay; those are over-represented in the sample as a whole.
Metric name: growth inhibition (%)

O=c1[nH]cccc1O | -8.8
NC(=O)Cc1c[nH]c2ccccc12 | 33.4
COc1cc(OC)cc(C(NC(C)=O)NC(C)=O)c1 | 1.5
COC(=O)c1c2c(cc3nc4ccccc4nc13)OCO2 | 16.9
CC1(n2nc(-c3ccccc3)n(-c3ccccc3)c2=O)CSC1 | -15.8

---

Assay text: NCI Yeast Anticancer Drug Screen. Data for the cln2 rad14 strain (AID 165);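 further: 0% = growth equal to vehicle treated cultures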
Stated conditions: S. cerevisiae cln2 rad14 strain, at 50.0 µM, stronger effect = higher value
This is part of a sample that, as a whole, favours compounds with a hit. Of some 79,000 tested, about 15% had one in any assay.
Metric name: growth inhibition (%)

CCC1(c2ccccc2)Nc2ccccc2C1=Nc1ccccc1 (stereo not drawn) | 9.5
NC(CC(=O)O)CC(=O)O | 14.7
CC1(C)N=C(c2ccccc2)SC1(C)C | -49.4

---

Assay text: NCI Yeast Anticancer Drug Screen. Data for the cln2 rad14 strain (AID 165);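 further: 0% = growth equal to vehicle treated cultures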
Stated conditions: S. cerevisiae cln2 rad14 strain, at 50.0 µM, stronger effect = higher value
The panel holds about 79,000 compounds, 15% with a hit somewhere; the sample as a whole holds those more often.
Metric name: growth inhibition (%)

CCN(CC)CCCC(C)Nc1c2ccc(Cl)cc2nc2c(Cl)cc(Cl)cc12 (stereo not given) | 23.6
CC(=O)Nc1ccc(NC(=O)Nc2cccc(C(C)=O)c2)cc1 | 0.3
COC(=O)CC(C(C(=O)OC)C(=O)OC)N1C(=O)OC(c2ccccc2)C1c1ccccc1 (stereo not given) | 9.4
CC1OS(=O)(=O)CS(=O)(=O)OC1C (stereo not given) | -61.4
CCCCNC(=S)C(=S)NCCCC | 26.9

---

Assay text: NCI Yeast Anticancer Drug Screen. Data for the cln2 rad14 strain (AID 165);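 further: 0% = growth equal to vehicle treated cultures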
Stated conditions: S. cerevisiae cln2 rad14 strain, at 50.0 µM, stronger effect = higher value
Description: Growth inhibition of yeast strains with defined genetic alterations is measured as a screen for potential anti-cancer activity. Selected strains with alterations in DNA damage repair or cell cycle control were exposed to compounds and growth inhibition was measured relative to vehicle treated controls. The strain used in this assay is cln2 rad14
Compounds without any hit were thinned out: in the full panel of roughly 79,000, 15% have a hit. Active and inactive are the calls of the source. No stated cut-off is given here; in the data, active means growth inhibition above about 70%; inactive means the rest.
This section presents compounds with their documented growth inhibition values.
Metric name: growth inhibition

CCOC(=O)CCC(=O)N(CC)CC | 9.9% (inactive)
COc1ccc(C23CCCC(=O)C2C2C(=O)CCCC23c2ccc(OC)cc2)cc1 (centres undefined) | 10.6% (inactive)
CC(=O)OC(=O)C(=O)C(F)C(O)C(C)C (centres undefined) | -10.4% (inactive)
N#Cc1c(N)ncn1C1OC(CO)C(O)C1O (centres undefined) | -16.3% (inactive)
COc1ccc(-c2cc(-c3ccccc3)n(-c3ccccc3)n2)cc1 | -2.85% (inactive)
O=C(Nc1ccc(Cl)c(Cl)c1)OCCN1CCOCC1 | 67.2% (inactive)
NC(=O)CCP(=O)(CCC(N)=O)CCC(N)=O | 0.8% (inactive)
CCCOC1(C)Oc2cc3c(cc2C(c2cc(OC)c(OC)c(OC)c2)C1C)OCO3 (centres undefined) | 45.4% (inactive)
Cn1c(=O)ccc2c(=O)c3c(ccc4ccccc43)oc21 | -10.1% (inactive)
O=C(NC(Cc1ccccc1)C(=O)NC(Cc1c[nH]c2ccccc12)C(=O)O)OCc1ccccc1 (centres undefined) | -7.3% (inactive)
[CH2+][B-]1(C)n2cc(Br)c[n+]2[B-](C)(C)[n+]2cc(Br)cn21 | 9.8% (inactive)
OC(COc1ccc(Cl)cc1Cl)CN1CCCC1 (centres undefined) | 5.05% (inactive)
CSc1ccc(NC(=O)NNP(=S)(Oc2ccc(C(C)(C)C)cc2)Oc2ccc(C(C)(C)C)cc2)cc1 | 13.8% (inactive)
O=C(n1[nH]c(=O)n(-c2ccc([N+](=O)[O-])cc2)c1=O)C(Cl)(Cl)Cl | 7.6% (inactive)
